pIC50: −log10 of the molar value.
// pIC50 collected for JAK2 kinase (Homo sapiens, UniProt O60674)

Recorded pIC50, per entry:
CCO[C@H]1CNc2cc(Nc3ncc(C(N)=O)c(NC4CC4)n3)ccc2OC1    7.00 to 8.00
CO[C@@H]1CNc2cc(Nc3ncc(C(N)=O)c(NC4CC4)n3)ccc2OC1    > 8.00
NC(=O)c1cnc(Nc2ccc3c(c2)NCC(O)CO3)nc1NCc1ccccc1 (stereo not shown)    7.00 to 8.00
NC(=O)c1cnc(Nc2ccc3c(c2)NC[C@H](O)CO3)nc1NCC1CCC1    > 8.00
COCCCO[C@H]1CNc2cc(Nc3ncc(C(N)=O)c(NC4CC4)n3)ccc2OC1    7.00 to 8.00

Q) For the compound `CCCNc1nc(Nc2ccc3c(c2)NC[C@H](O)CO3)ncc1C(N)=O` , give its measured pIC50 value.
A) 7.00 to 8.00

Q) For the compound `CO[C@H]1CNc2cc(Nc3ncc(C(N)=O)c(NC4CC4)n3)ccc2OC1` , give its measured pIC50 value.
A) 7.00 to 8.00

Q) For the compound NC(=O)c1cnc(Nc2ccc3c(c2)NC[C@H](OCC2CCCOC2)CO3)nc1NC1CC1 (stereo partly shown) , give its measured pIC50 value.
A) 7.00 to 8.00

Q) For the compound `CC(C)(C)OCCO[C@H]1CNc2cc(Nc3ncc(C(N)=O)c(NC4CC4)n3)ccc2OC1` , give its measured pIC50 value.
A) 7.00 to 8.00

Q) For the compound NC(=O)c1cnc(Nc2ccc3c(c2)NC[C@H](O)CO3)nc1NC1C2CC3CC1CC(O)(C3)C2 (stereo partly shown) , give its measured pIC50 value.
A) > 8.00

Q) For the compound `NC(=O)c1cnc(Nc2ccc3c(c2)NC[C@H](O)CO3)nc1Nc1ccc2[nH]ccc2c1` , give its measured pIC50 value.
A) > 8.00

Q) For the compound `NC(=O)c1cnc(Nc2ccc3c(c2)NC[C@H](O)CO3)nc1NCCN1CCOCC1` , give its measured pIC50 value.
A) 7.00 to 8.00

Q) For the compound `CC1(CO[C@H]2CNc3cc(Nc4ncc(C(N)=O)c(NC5CC5)n4)ccc3OC2)COC1` , give its measured pIC50 value.
A) 7.00 to 8.00
